Tested on: OVCAR-3 ovarian
Assay: NCI tumour cell line growth inhibition, 48 h
measure: TGI (µM)
Write down the numeric answer in µM and omit the unit.

Task: Recall the reported TGI of `CC(=O)NC1=C(NCC(C)C)C(=O)c2ccccc2C1=O` on OVCAR-3 ovarian and write it down.
Output: 32.4

Task: Give reported TGI for `Cc1cc([N+](=O)[O-])c(S(=O)(=O)c2ccccc2)c([N+](=O)[O-])c1` (OVCAR-3 ovarian)
Output: 11.4

Task: Report its TGI with OVCAR-3 ovarian as the test system: CCN(CC)CCOc1ccc(/C=C2\CC3C4CC=C5C[C@@H](OC(C)=O)CC[C@]5(C)C4CC[C@]3(C)C2=O)cc1OC (stereo not given in full)
Output: 3.45

---

Test system: NCI-H460 lung
Choose one outcome from this list and give only that: active, inactive

Task: Kindly provide the recorded test outcome for the following compound: `O=C(Nc1ccccc1O)c1ccc(CNC(=O)c2ccsc2Nc2ccnc(C(F)(F)F)c2)cc1`
Output: inactive

Task: Fill in: this test's call for `C/C(=N\n1c(N)c(C#N)c(-c2ccc(Cl)cc2)c(C#N)c1=O)c1ccncc1` is ___
Output: inactive

Task: Which outcome was entered for the compound `Cc1cc(NC(=O)NC(=O)c2ccccc2N(C)C)ccc1Oc1ncc(Br)cn1` in this test?
Output: active

Task: What was the test verdict on `CC(C)(CO)N=Cc1ccccc1[O-].CC(C)(CO)N=Cc1ccccc1[O-].[Co+2]` ?
Output: inactive

Task: Could you kindly confirm the outcome this assay logged for COc1ccc(C2ONC3=NCCN32)cc1 (stereo not drawn) ?
Output: inactive

Task: What outcome does the record of this test show for `Cn1cnc([N+](=O)[O-])c1Sc1nc(N)nc2nc[nH]c12` ?
Output: inactive

Task: Outcome logged for `O=C(CCN1CCCC1)Nc1ccc2c(Nc3ccccc3)c3ccccc3nc2c1` in this assay:
Output: active

Task: Please share the test call associated with `COc1ccc2[nH]c(-c3ccccc3)cc2c1` .
Output: inactive

Task: What was the test verdict on CC1(C)C2CCC13C(=O)C1OC3(C2)C2C(=O)c3c(O)cccc3C(=O)C12 (stereo not drawn) ?
Output: inactive

Task: So what was the verdict on `COc1cc(-n2cc(-c3cc(O)c(C/C=C(\C)CCC=C(C)C)c(O)c3)nn2)cc2c1O[C@]1(C)CC[C@@H](O)C(C)(C)[C@H]1C2` in this test?
Output: inactive

Task: Which outcome did this test record for the compound `COc1cc2nnn3c4ncccc4c(N=O)c3c2cc1OC` ?
Output: inactive

Task: Tell me the recorded outcome of this test for `COC(=O)[C@H](Cc1ccccc1)NC(=O)c1csc([C@@H](C[C@H](C(C)C)N(C)C(=O)[C@@H](NC(=O)[C@H]2CCCN2C)C2CC2)OC(C)=O)n1` .
Output: active

Task: Query: recorded result category for `CC(C)(C)CC(C)(C)c1ccc(OCCOCC[N+](C)(C)Cc2ccccc2)cc1` in this test
Output: inactive

---

Tested on: SK-OV-3 ovarian
Assay: NCI tumour cell line growth inhibition, 48 h; in the data active = GI50 below about 0.43 µM; inactive = the rest
Please reply with one of these outcomes: true (1) (active), false (0) (inactive)

Task: Each compound tested received a call. Report the one for `Nc1ncnc2c1c(-c1ccc(Oc3ccccc3)cc1)nn2C[C@@H]1SSC[C@@H]1O` .
Output: false (0)

Task: Tell me the assay call for `Cc1n(Cc2ccc3ccccc3c2)c(Cl)c(Cl)[n+]1Cc1ccc2ccccc2c1` please.
Output: false (0)

Task: Fill in: this test's call for c1ccc(CC(NCCNC(Cc2ccccc2)c2ccccc2)c2ccccc2)cc1 (stereo not given) is ___
Output: false (0)

Task: Given `COc1cc2cc(Oc3ccc(NC(=O)c4cccc5c4OCCO5)cc3)c(C)nc2cc1OC` , state the outcome it received in this test.
Output: false (0)

Task: Please state the recorded outcome for this compound: COc1ccc(-c2nc3c(c(=O)n2C(C)=O)C(c2ccc(Cl)cc2)c2sc4c(Cl)cccc4c2O3)cc1 (stereo not given)
Output: true (1)

---

Exercise: state measured TGI for each of the compounds provided.
Tested on: BT-549 breast
Assay: NCI tumour cell line growth inhibition, 48 h
The answer is to be given in µM; state only the numeric part.

Task: // Input: `COc1ccc(-c2cc(/C=C/C(=O)c3cc(OC)c(OC)c(OC)c3)[nH]n2)cc1OC` . Output its TGI only.
Output: 2.93

Task: // Input: `C[C@@H]1C/C=C\C(=O)O[C@H](/C=C/C#C/C=C/C(C)(C)[C@@H](O)c2cccc(O)c2Br)[C@@H](C)/C=C/[C@H](C)C[C@H](OC(N)=O)C1` . Output its TGI only.
Output: 18.2

Task: Please give the documented TGI of `O=C(Nc1ccc(Cl)cc1)Nc1ccccc1CNc1nc(Nc2ccc(OCCN3CCCC3)cc2)ncc1Cl`
Output: 12.6

Task: Look up and report measured TGI for this entry: COc1cc2cc(C(=O)N3CC(CCl)c4c3cc([N+](C)(C)Cc3ccc([N+](=O)[O-])n3C)c3ccccc43)[nH]c2c(OC)c1OC (centres undefined)
Output: 11.5

Task: Tell me measured TGI for `C=CC(=O)Nc1cccc(Nc2nc(Nc3ccc(OCCOC(F)F)cc3)ncc2F)c1` please.
Output: 11.6

Task: Identify measured TGI corresponding to `O=c1oc2ccc(Cl)cc2cc1-c1cn2ccsc2n1`
Output: 70.3

---

Test system: SNB-19 CNS
Assay: NCI tumour cell line growth inhibition, 48 h
measure: TGI

Task: // fetch TGI for CC12CC(C/C1=N/O)C(C)(C)C2 (configuration not stated) ; system: SNB-19 CNS
Output: > 100 µM

Task: Lab note: SNB-19 CNS assay, enter TGI for `O=C1OI(C#Cc2ccccc2)c2ccccc21` here
Output: 21.8 µM

Task: Retrieve TGI on SNB-19 CNS; query COc1ccc(C2ONC3=NCCN32)cc1 (configuration not stated)
Output: > 100 µM

Task: Specify the recorded TGI for COC(=O)CC(NC(=O)OCc1ccccc1)C(C(=O)OCc1ccccc1)C1(C)OCCO1 (configuration not stated) , system: SNB-19 CNS.
Output: > 100 µM

Task: Check SNB-19 CNS data and give TGI for CC1(C)OC(COCCOCCCCCO)C(COCCOCCCCCO)O1 (configuration not stated) .
Output: > 100 µM

Task: Specify the recorded TGI for COc1nc2c(c(O)c(C)c(=O)n2OC2OC(COC(C)=O)C(OC(C)=O)C(OC(C)=O)C2OC(C)=O)c(=O)n1C (configuration not stated) , system: SNB-19 CNS.
Output: > 100 µM

Task: Give the observed TGI of `CN(C)C(=O)SC1=C(c2c(Cl)cccc2Cl)C(=O)c2ccccc21` for SNB-19 CNS.
Output: 29.4 µM

Task: Report the value of TGI obtained on SNB-19 CNS for `C/C(=N/O)c1ccc2c(c1)C(=NO)c1cc(/C(C)=N/O)ccc1-2` .
Output: 26.8 µM

Task: Answer with TGI of c1ccc(CC(NCCNC(Cc2ccccc2)c2ccccc2)c2ccccc2)cc1 (configuration not stated) measured for SNB-19 CNS.
Output: 4.15 µM

Task: # assay system SNB-19 CNS: give TGI of `NC(=S)N/N=C\CC(O)(C(F)(F)F)C(F)(F)F`
Output: > 10 µM

Task: Give TGI only, for `Nc1c(N=Nc2ccc(-c3ccc(N=Nc4c(O)ccc5cc(S(=O)(=O)O)cc(S(=O)(=O)O)c45)cc3)cc2)c(S(=O)(=O)O)cc2cc(S(=O)(=O)O)c(N=Nc3ccccc3)c(O)c12` , using SNB-19 CNS data.
Output: > 100 µM

Task: Print SNB-19 CNS TGI for CC1(C)C2CCC13C(=O)C1OC3(C2)C2C(=O)c3c(O)cccc3C(=O)C12 (configuration not stated) .
Output: 23.9 µM

Task: Answer with TGI of Cc1ccc2c(c1)CC1(C2=O)[C@H](c2ccccc2)C2C(=O)c3ccc(C)cc3C2[C@H]1c1ccccc1 (some centres not stated) measured for SNB-19 CNS.
Output: > 100 µM

Task: # return TGI for `C/C(=C\Cc1cc(O)ccc1O)CCc1c(C)cc(O)c(C=O)c1C` , test system: SNB-19 CNS
Output: > 100 µM

Task: Enter recorded TGI with SNB-19 CNS for `CC1=C2NCN(C)N=C2C(C#N)(C#N)C1(C#N)C#N` here.
Output: > 95.2 µM

Task: State TGI on SNB-19 CNS. Entry: CC(C)C1CC(CO)(CNc2cc(Cl)nc(N)n2)C1 (configuration not stated)
Output: > 100 µM

Task: Provide measured TGI on SNB-19 CNS for `CC(C)(C)OC(=O)N1CCc2c(n(C/C=C/c3ccccc3)[nH]c2=O)C1` please.
Output: > 100 µM

Task: Give the observed TGI of CCOC(=O)C1CCCCc2sc(N)c(C#N)c21 (configuration not stated) for SNB-19 CNS.
Output: > 100 µM

Task: For SNB-19 CNS, give the measured TGI of the entry CCN(CC)CCOc1ccc(/C=C2\CC3C4CC=C5C[C@@H](OC(C)=O)CC[C@]5(C)C4CC[C@]3(C)C2=O)cc1OC (some centres not stated)
Output: > 100 µM

Task: Specify the recorded TGI for O=C1CSC2(CC(/C=C/c3ccccc3Br)=NN2c2cccc(S(=O)(=O)O)c2)N1c1nc2ccccc2s1 (configuration not stated) , system: SNB-19 CNS.
Output: > 100 µM

Task: With SNB-19 CNS as the test system, provide measured TGI for this compound: `CNc1ccc(Cl)cc1S(=O)(=O)c1ccccc1[N+](=O)[O-]`
Output: > 100 µM

Task: State, for SNB-19 CNS, measured TGI of the compound listed here: `CC(=O)Oc1ccc(C2(c3ccc(OC(C)=O)cc3)C(=O)Nc3ccccc32)cc1`
Output: > 100 µM

Task: Recall the reported TGI of C/C(=N\Nc1ccccc1)C(CN(C)C)C(c1ccccc1)c1c(O)c2ccccc2oc1=O (configuration not stated) when tested on SNB-19 CNS.
Output: > 100 µM

Task: Provide TGI, system SNB-19 CNS, entry CNc1ccc(S(=O)Nc2ccccc2)cc1 (configuration not stated)
Output: > 100 µM

Task: Write TGI of `Cc1nnc(N=Nc2c(O)[nH]c3ccccc23)n1N` ; system used: SNB-19 CNS
Output: > 100 µM

Task: Lab note: SNB-19 CNS assay, enter TGI for `O=c1oc2ccc(F)cc2c(=O)n1-c1ccc(Br)cc1F` here
Output: > 80.8 µM

Task: Name the value of TGI reported for COc1ccc(-c2nc(-c3cnccn3)n(C3OC(CO)C(O)C(O)C3O)n2)cc1 (configuration not stated) when tested on SNB-19 CNS.
Output: > 100 µM

Task: Recall the reported TGI of COC(=O)C1(F)C(=O)NC(=O)NC1OC (configuration not stated) when tested on SNB-19 CNS.
Output: > 100 µM

Task: Please report TGI with SNB-19 CNS for item NC(=O)C1=CC2C3C=CC2(O)C(=O)OC3O1 (configuration not stated) .
Output: 60.9 µM

Task: Report TGI on SNB-19 CNS for this entry: `c1ccc([P+](c2ccccc2)(c2ccccc2)c2ccc([P+](c3ccccc3)(c3ccccc3)c3ccccc3)cc2)cc1`
Output: > 100 µM

Task: # lookup: SNB-19 CNS TGI, key = `CC(C)(CO)N=Cc1ccccc1[O-].CC(C)(CO)N=Cc1ccccc1[O-].[Co+2]`
Output: > 100 µM

Task: Supply TGI measured with SNB-19 CNS for `COc1cc2cc(Oc3ccc(NC(=O)c4cccc5c4OCCO5)cc3)c(C)nc2cc1OC` .
Output: > 100 µM
